// data source = patent USRE40086E1

test system: S. haemolyticus AVAH 88-3; assay: MIC, agar dilution; assay type: cell-based; settings: S. haemolyticus AVAH 88-3
VALUE KIND: MIC (µg/mL)
Return type: number; implicit unit µg/mL.

Observe how each entry below is paired with its result.
>>> print(df.to_string())
                                   compound  assay_value
0  CN(C)CC(=O)Nc1cc(N(C)C)c2c(c1O)C(=O)C1=C(O)C3(O)C(=O)C(C(N)=O)=C(O)C(N(C)C)C3CC1C2.O=S(=O)(O)O (stereo not shown)         0.25
1  CN(C)c1cc(NC(=O)c2cccs2)c(O)c2c1CC1CC3C(N(C)C)C(O)=C(C(N)=O)C(=O)C3(O)C(O)=C1C2=O (stereo not shown)            8
2  COc1ccc(C(=O)Nc2cc(N(C)C)c3c(c2O)C(=O)C2=C(O)C4(O)C(=O)C(C(N)=O)=C(O)C(N(C)C)C4CC2C3)cc1 (stereo not shown)            8
3  CN(C)c1cc(NC(=O)c2ccc(N)cc2)c(O)c2c1CC1CC3C(N(C)C)C(O)=C(C(N)=O)C(=O)C3(O)C(O)=C1C2=O.O=S(=O)(O)O (stereo not shown)            8
4  CN(C)c1cc(NC(=O)c2ccccc2F)c(O)c2c1CC1CC3C(N(C)C)C(O)=C(C(N)=O)C(=O)C3(O)C(O)=C1C2=O (stereo not shown)            4

Let us examine a further case.
Query: Return reported MIC. Input compound: `CN(C)c1cc(NC(=O)C(F)(F)F)c(O)c2c1C[C@H]1C[C@H]3[C@H](N(C)C)C(O)=C(C(N)=O)C(=O)[C@@]3(O)C(O)=C1C2=O.O=S(=O)(O)O`
Response: 0.5

====

# Lookup of reported log10(MIC) keyed by entry
test system: S. aureus UBMS 88-7 (tetK); assay: MIC, agar dilution; format: cell-based; conditions: S. aureus UBMS 88-7 (tetK)
Hello, just confirming the data are log10 of MIC with units of µg/mL.

COMPOUND	ASSAY SYSTEM	log10(MIC)
COC(=O)Nc1cc(N(C)C)c2c(c1O)C(=O)C1=C(O)[C@]3(O)C(=O)C(C(N)=O)=C(O)[C@@H](N(C)C)C3CC1C2 (stereo partly shown) [HH]	S. aureus UBMS 88-7 (tetK)	-0.30
CN(C)CC(=O)Nc1cc(N(C)C)c2c(c1O)C(=O)C1=C(O)C3(O)C(=O)C(C(N)=O)=C(O)C(N(C)C)C3CC1C2.O=S(=O)(O)O (stereo not shown) [II]	S. aureus UBMS 88-7 (tetK)	-1.22
CC(=O)Nc1nc(C)c(S(=O)(=O)Nc2cc(N(C)C)c3c(c2O)C(=O)C2=C(O)C4(O)C(=O)C(C(N)=O)=C(O)C(N(C)C)C4CC2C3)s1 (stereo not shown) [GG]	S. aureus UBMS 88-7 (tetK)	1.51
CN(C)c1cc(NC(=O)c2cccc(C(F)(F)F)c2)c(O)c2c1CC1CC3C(N(C)C)C(O)=C(C(N)=O)C(=O)C3(O)C(O)=C1C2=O (stereo not shown) [U]	S. aureus UBMS 88-7 (tetK)	0.00
CN(C)c1ccc(C(=O)Nc2cc(N(C)C)c3c(c2O)C(=O)C2=C(O)[C@]4(O)C(=O)C(C(N)=O)=C(O)[C@@H](N(C)C)[C@@H]4C[C@@H]2C3)cc1 [W]	S. aureus UBMS 88-7 (tetK)	1.20
CN(C)c1cc(NC(=O)c2c(F)c(F)c(F)c(F)c2F)c(O)c2c1CC1CC3C(N(C)C)C(O)=C(C(N)=O)C(=O)C3(O)C(O)=C1C2=O (stereo not shown) [T]	S. aureus UBMS 88-7 (tetK)	0.60
CCN(CC)c1cc(NC(C)=O)c(O)c2c1CC1CC3C(N(C)C)C(O)=C(C(N)=O)C(=O)C3(O)C(O)=C1C2=O (stereo not shown) [F]	S. aureus UBMS 88-7 (tetK)	0.30
CN(C)c1cc(N(C)C)c2c(c1O)C(=O)C1=C(O)C3(O)C(=O)C(C(N)=O)=C(O)C(N(C)C)C3CC1C2 (stereo not shown) [C]	S. aureus UBMS 88-7 (tetK)	-0.60
CN(C)c1cc(NS(=O)(=O)c2ccccc2)c(O)c2c1CC1CC3C(N(C)C)C(O)=C(C(N)=O)C(=O)C3(O)C(O)=C1C2=O (stereo not shown) [CC]	S. aureus UBMS 88-7 (tetK)	0.60
CN(C)c1cc(NC(=O)COCc2ccccc2)c(O)c2c1CC1CC3C(N(C)C)C(O)=C(C(N)=O)C(=O)C3(O)C(O)=C1C2=O (stereo not shown) [J]	S. aureus UBMS 88-7 (tetK)	0.30

Query: Report measured log10(MIC); entry is CC(=O)Nc1cc(N(C)C)c2c(c1O)C(=O)C1=C(O)[C@]3(O)C(=O)C(C(N)=O)=C(O)[C@@H](N(C)C)[C@@H]3C[C@@H]1C2 [B]
Response: 0.60

Query: Give me measured log10(MIC), please, for this compound: CN(C)c1cc(NC(=O)C(F)(F)F)c(O)c2c1C[C@H]1C[C@H]3[C@H](N(C)C)C(O)=C(C(N)=O)C(=O)[C@@]3(O)C(O)=C1C2=O.O=S(=O)(O)O [I]
Response: 1.20
